The values you see were collected from ChEMBL document CHEMBL4513135.

test system: Staphylococcus aureus; conditions: Concentration 32 ug.mL-1; ASSAY_TEST Inhibition of Bacterial Growth; detection method Absorption (OD600); MEDIA CAMHB; plate type 384well; NBS; CORNING #3640; time 18 hr
Description: Antibacterial activity against Staphylococcus aureus MRSA ATCC 43300 (CO-ADD:GP_020); MIC in CAMBH media, using NBS plates, by OD(600)
Potency and affinity values are given separately.
Catalogue of molecules with associated Inhibition
RESULT_TYPE: Inhibition (%)

1) COc1ccc(/C=C2/N=C(c3ccccc3)OC2=O)cc1OC :: -19.31
2) CC1Cc2c(Br)nc3nc4c(c(N)c3c2NC1=O)CCCC4 (stereo unspecified) :: 27.55
3) CCOC(=O)/C(=C\c1ccccc1)C(=O)c1ccccc1 :: 9.55
4) C#CCN(C)c1nc(Sc2ccccc2)c(C#N)c(-c2ccccc2)c1C#N :: 6.49
5) N#CC1=C(N)NC(=O)CC1c1ccccc1 (stereo unspecified) :: 34.44
6) N#CC1=C(Cl)Oc2c(ccc3ccccc23)C1c1ccc([N+](=O)[O-])cc1 (stereo unspecified) :: 7.21
7) Cc1ccc(C2c3c(Cl)nnnc3Oc3ccc4ccccc4c32)cc1 (stereo unspecified) :: 36.97
8) Cc1nc(NCc2ccccc2)c2cnn(-c3ccccc3)c2n1 :: 7.38
9) COC(=O)C(NC(=O)c1ccccc1)=C(C)c1ccccc1 :: 11.03
10) N#CC1(Br)C(=NBr)Oc2ccc3ccccc3c2C1c1ccccc1 (stereo unspecified) :: 7.34
11) C#CCNc1nc(NCCCC2CCN(Cc3ccccc3)CC2)c(C#N)cc1C#N.Cl :: -16.88
